# System: LXRb homodimer (NR concentration 270 nM)
# protocolText: PBM binding z-score (relative to random genomic background probes); higher = stronger binding; sequences stand for … in GC…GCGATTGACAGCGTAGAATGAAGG

{"seqText": "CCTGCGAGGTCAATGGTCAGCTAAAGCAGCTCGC", "PBM binding z-score": 0.981}
{"seqText": "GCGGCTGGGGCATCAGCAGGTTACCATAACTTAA", "PBM binding z-score": -0.602}
{"seqText": "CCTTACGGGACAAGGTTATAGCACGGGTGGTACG", "PBM binding z-score": -0.233}
{"seqText": "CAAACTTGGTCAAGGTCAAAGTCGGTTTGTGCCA", "PBM binding z-score": 0.689}
{"seqText": "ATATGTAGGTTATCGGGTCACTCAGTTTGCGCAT", "PBM binding z-score": 1.3}
{"seqText": "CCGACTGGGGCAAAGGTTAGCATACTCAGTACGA", "PBM binding z-score": -1.29}
{"seqText": "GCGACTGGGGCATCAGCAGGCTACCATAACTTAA", "PBM binding z-score": -1.43}
{"seqText": "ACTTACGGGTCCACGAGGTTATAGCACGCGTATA", "PBM binding z-score": 0.189}
{"seqText": "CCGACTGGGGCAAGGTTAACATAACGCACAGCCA", "PBM binding z-score": -0.786}
{"seqText": "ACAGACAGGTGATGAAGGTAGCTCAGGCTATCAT", "PBM binding z-score": -0.548}
{"seqText": "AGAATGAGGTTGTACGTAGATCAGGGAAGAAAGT", "PBM binding z-score": 0.0497}
{"seqText": "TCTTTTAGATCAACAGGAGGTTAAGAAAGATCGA", "PBM binding z-score": 0.898}
{"seqText": "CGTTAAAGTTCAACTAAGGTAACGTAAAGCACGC", "PBM binding z-score": 1.89}
{"seqText": "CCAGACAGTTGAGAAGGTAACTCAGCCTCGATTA", "PBM binding z-score": 0.336}
{"seqText": "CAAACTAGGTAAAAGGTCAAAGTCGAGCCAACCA", "PBM binding z-score": 2.23}
{"seqText": "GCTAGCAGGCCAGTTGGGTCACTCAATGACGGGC", "PBM binding z-score": -1.51}
